Target Entity: Jak2 (a.a. 828-1132) (Homo sapiens)
Construct: Jak2 (a.a. 828-1132); His tag (N); made in house; host or cells: insect cells (baculovirus)
Sequence (O60674 828-1132): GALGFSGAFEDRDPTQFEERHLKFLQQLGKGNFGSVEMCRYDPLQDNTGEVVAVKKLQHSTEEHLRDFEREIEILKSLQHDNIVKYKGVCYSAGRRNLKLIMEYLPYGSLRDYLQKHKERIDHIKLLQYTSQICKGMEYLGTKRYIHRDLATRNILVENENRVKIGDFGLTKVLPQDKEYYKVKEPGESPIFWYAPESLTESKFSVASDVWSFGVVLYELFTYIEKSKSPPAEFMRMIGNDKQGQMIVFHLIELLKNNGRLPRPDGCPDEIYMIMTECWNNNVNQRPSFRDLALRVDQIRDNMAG
Procedure Details: In vitro JAK kinase assay (HTRF, phosphorylation of a biotinylated peptide), JAK2, reported as JAK2/JAK1 ratio
Assay type: biochemical
Condition Details: Assay Conditions Km (ATP 90 μM for Jak1, 30 μM for Jak2)
Description: Compounds herein were tested for inhibitory activity of JAK targets according to the following in vitro assay described in Park et al., Analytical Biochemistry 1999, 269, 94-104. […] The phosphorylated peptide was detected by homogenous time resolved fluorescence (HTRF). […] Binding to the Europium labeled antibody took place for 40 min and HTRF signal was measured on a Fusion plate reader (Perkin Elmer, Boston, Mass.). […]
Structures can show the parent of a compound that is named as a salt.
Parameter: JAK2/JAK1 IC50 ratio

Check out these entries, answers already filled in.
| Molecule | Target Entity | JAK2/JAK1 IC50 ratio |
| --- | --- | --- |
| N#CCC(C1CCN(c2ccnc(Cl)n2)C1)n1cc(-c2ncnc3[nH]ccc23)cn1 (single isomer, unassigned) [3, Step 2a] | Jak2 (a.a. 828-1132) (Homo sapiens) | 2.3 |
| N#CCC(C1CCN(c2cccc(Cl)n2)C1)n1cc(-c2ncnc3[nH]ccc23)cn1 (single isomer, unassigned) [2, Step 2b] | Jak2 (a.a. 828-1132) (Homo sapiens) | 3.7 |
| N#CCC(C1CCN(c2nc3cccnc3o2)C1)n1cc(-c2ncnc3[nH]ccc23)cn1 (single isomer, unassigned) [Example 13b] | Jak2 (a.a. 828-1132) (Homo sapiens) | 2.1 |

(I) Cc1cnc2oc(N3CCC(C(CC#N)n4cc(-c5ncnc6[nH]ccc56)cn4)C3)nc2c1 (single isomer, unassigned)
(II) N#CCC(C1CCN(c2nc3ccccc3nc2O)C1)n1cc(-c2ncnc3[nH]ccc23)cn1 (stereo not shown) [Example 43, trifluoroacetate salt]
(III) N#CCC(C1CCN(c2cccc(Cl)n2)C1)n1cc(-c2ncnc3[nH]ccc23)cn1 (single isomer, unassigned) [2, Step 2a]
(IV) N#CCC(C1CCN(c2nc3cccnc3o2)C1)n1cc(-c2ncnc3[nH]ccc23)cn1 (single isomer, unassigned) [Example 13a]
# rank_down: sort by JAK2/JAK1 IC50 ratio, max first Give me the labels in the order the question wants. IV, III, I, II

(1) N#CCC(C1CCN(c2nc3cccnc3o2)C1)n1ccc(-c2ncnc3[nH]ccc23)c1 (single isomer, unassigned) [32, Step 2a, enantiomer 2]
(2) N#CCC(C1CCN(c2nc3cc(Cl)ccc3o2)C1)n1cc(-c2ncnc3[nH]ccc23)cn1 (single isomer, unassigned)
(3) N#CCC(C1CCN(c2nc3cnccc3o2)C1)n1cc(-c2ncnc3[nH]ccc23)cn1 (single isomer, unassigned)
Order field: JAK2/JAK1 IC50 ratio | Direction: descending (largest first) Record the ranking as a list of labels in the requested order. 1, 3, 2
(1: 5.7, 3: 2.9, 2: 1.9)

###

Target Entity: Jak2 (a.a. 828-1132) (Homo sapiens)
Construct: Jak2 (a.a. 828-1132); His tag (N); made in house; host or cells: insect cells (baculovirus)
Procedure Details: In vitro JAK kinase assay (HTRF, phosphorylation of a biotinylated peptide), JAK2, reported as JAK2/JAK1 ratio
Assay type: biochemical
Condition Details: Assay Conditions 1 mM ATP
Where a name gives a salt, the structure may show the parent alone.
Parameter: JAK2/JAK1 IC50 ratio

| Compound | Target Entity | JAK2/JAK1 IC50 ratio |
| --- | --- | --- |
| N#CCC(C1CCN(c2nc3cc(F)ccc3o2)C1)n1cc(-c2ncnc3[nH]ccc23)cn1 (single isomer, unassigned) | Jak2 (a.a. 828-1132) (Homo sapiens) | 5.3 |
| N#CC[C@@H]([C@H]1CCN(c2nccc(C(F)F)c2C#N)C1)n1cc(-c2ncnc3[nH]ccc23)cn1 [Example 103, bis(trifluoroacetate)] | Jak2 (a.a. 828-1132) (Homo sapiens) | 22.8 |
| Cc1cnc(N2CC[C@H]([C@H](CC#N)n3cc(-c4ncnc5[nH]ccc45)cn3)C2)c(C#N)c1 [Example 109, trifluoroacetate salt] | Jak2 (a.a. 828-1132) (Homo sapiens) | 5.0 |
| N#CCC(C1CCN(c2nc3cncnc3o2)C1)n1cc(-c2ncnc3[nH]ccc23)cn1 (single isomer, unassigned) | Jak2 (a.a. 828-1132) (Homo sapiens) | 10.3 |
| CS(=O)(=O)c1nc(N2CC[C@H]([C@H](CC#N)n3cc(-c4ncnc5[nH]ccc45)cn3)C2)c(F)cc1F [Example 130, trifluoroacetate] | Jak2 (a.a. 828-1132) (Homo sapiens) | 14.8 |
| N#CC[C@@H]([C@H]1CCN(c2nc(Cl)ccc2N)C1)n1cc(-c2ncnc3[nH]ccc23)cn1 [Example 105, trifluoroacetate salt] | Jak2 (a.a. 828-1132) (Homo sapiens) | 3.0 |
| Cn1cc(Cl)nc(N2CCC(C(CC#N)n3cc(-c4ncnc5[nH]ccc45)cn3)C2)c1=O (racemic) | Jak2 (a.a. 828-1132) (Homo sapiens) | 6 |
| N#CC[C@@H]([C@H]1CCN(c2nccc(C(F)(F)F)c2C#N)C1)n1cc(-c2ncnc3[nH]ccc23)cn1 [Example 50, trifluoroacetate] | Jak2 (a.a. 828-1132) (Homo sapiens) | 15.4 |
| CCCS(=O)(=O)c1ccc(F)c(N2CC[C@H]([C@H](CC#N)n3cc(-c4ncnc5[nH]ccc45)cn3)C2)n1 [Example 99, trifluoroacetate] | Jak2 (a.a. 828-1132) (Homo sapiens) | 7.6 |
| N#CCC(C1CCN(c2ccc3c(n2)S(=O)(=O)CC3)C1)n1ccc(-c2ncnc3[nH]ccc23)c1 (single isomer, unassigned) [34, enantiomer 1] | Jak2 (a.a. 828-1132) (Homo sapiens) | 5.6 |

(A) O=S1(=O)CCc2ccc(N3CC[C@H](C(CF)n4cc(-c5ncnc6[nH]ccc56)cn4)C3)nc21 (stereo partly shown) [Example 119, trifluoroacetate]
(B) CS(=O)(=O)c1cc(N2CCC(C(CC#N)n3cc(-c4ncnc5[nH]ccc45)cn3)C2)ccn1 (single isomer, unassigned)
Which value of JAK2/JAK1 IC50 ratio is greater, the one for A or the one for B ? The response must carry the label of the picked entry. B

(1) CCS(=O)(=O)c1cc(N2CCC(C(CC#N)n3ccc(-c4ncnc5[nH]ccc45)c3)C2)ccn1 (racemic)
(2) FCC([C@H]1CCN(c2nc3cccnc3o2)C1)n1cc(-c2ncnc3[nH]ccc23)cn1 (stereo partly drawn) [70 (3S- enantiomer)]
Sorting by JAK2/JAK1 IC50 ratio in descending order, would 1 or 2 appear first? Label of pick, please. 2

(1) FCC([C@H]1CCN(c2nc3c(cc2F)CCS3)C1)n1cc(-c2ncnc3[nH]ccc23)cn1 (stereo partly shown) [Example 85, bis(trifluoroacetate)]
(2) N#Cc1csc(N2CC[C@H](C(CF)n3cc(-c4ncnc5[nH]ccc45)cn3)C2)c1C#N (stereo partly shown)
(3) N#CCC(C1CCN(c2ccc3cc[nH]c3n2)C1)n1cc(-c2ncnc3[nH]ccc23)cn1 (stereo not shown) [Example 73, trifluoroacetate]
Please list these in order of increasing JAK2/JAK1 IC50 ratio. Thank you! Please list each label once, in the requested order. 3, 1, 2
(3: 1.7, 1: 5.3, 2: 12.1)
